- measured_target: human CD40 on cells (human, UniProt P25942 21-277)
- Sequence (P25942 21-277): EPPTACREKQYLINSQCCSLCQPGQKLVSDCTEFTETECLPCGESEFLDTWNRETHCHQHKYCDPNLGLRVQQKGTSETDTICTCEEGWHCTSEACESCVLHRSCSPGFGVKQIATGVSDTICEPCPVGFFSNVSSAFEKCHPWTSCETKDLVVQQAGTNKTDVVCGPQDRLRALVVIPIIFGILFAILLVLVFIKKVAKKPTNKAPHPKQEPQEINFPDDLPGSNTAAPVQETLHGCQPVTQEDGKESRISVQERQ
- run_description: cell-based or functional assay
metric: Activation of B cells, EC50 (proliferation of CD19+ B cells, Cell titer-Glo) (µg/mL)
Express your answer in µg/mL, writing the number without its unit.

Here is how some binders turned out for Activation of B cells, EC50 (proliferation of CD19+ B cells, Cell titer-Glo).
binder	readout_unit	recorded_value
Antibody B44 (antibody, V domains shown, Parent agonistic anti-CD40 antibody from the n-CoDeR library; Run alongside the IgG clones as 'B44 antibody' and detected with anti-human Ig on RAMOS cells; also called B44 antibody; original anti-CD40 antibody) VH: EVQLLESGGGLVQPGGSLRLSCAASGFTFSTYGMHWVRQAPGKGLEWLSYISGGSSYIFYADSVRGRFTISRDNSENALYLQMNSLRAEDTAVYYCARILRGGSGMDLWGQGTLVTVSS VL: QSVLTQPPSASGTPGQRVTISCTGSSSNIGAGYDVYWYQQLPGTAPKLLIYGNINRPSGVPDRFSGSKSGTSASLAISGLRSEDEADYYCAAWDDSLSGLVFGGGTKLTVLG	µg/mL	0.204
Antibody clone F6 (antibody, human IgG1, lambda, V domains shown) VH: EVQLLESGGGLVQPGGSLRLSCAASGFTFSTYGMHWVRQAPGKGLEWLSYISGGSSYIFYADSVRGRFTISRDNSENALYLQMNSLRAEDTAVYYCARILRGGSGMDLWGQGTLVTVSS VL: QSVLTQPPSASGTPGQRVTISCTGSSSNIGAGYDVYWYQQLPGTAPKLLIYRNINRPSGVPDRFSGSKSGTSASLAISGLRSEDEADYYCAAWDGSLLGLVFGGGTKLTVLG	µg/mL	0.4

Requested field: Activation of B cells, EC50 (proliferation of CD19+ B cells, Cell titer-Glo). Item: Antibody clone B9 (antibody, human IgG1, lambda, V domains shown) VH: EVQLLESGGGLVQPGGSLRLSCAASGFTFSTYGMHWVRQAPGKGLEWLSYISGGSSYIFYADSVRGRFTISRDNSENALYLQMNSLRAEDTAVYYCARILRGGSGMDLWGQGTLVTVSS VL: QSVLTQPPSASGTPGQRVTISCTGSSSNIGAGYNVYWYQQLPGTAPKLLIYGNINRPSGVPDRFSGSKSGTSASLAISGLRSEDEADYYCAAWDGGLLGLVFGGGTKLTVLG
0.48
